These data points were gathered from patent US20190248902A1.

// % Change Compared to pH 7.4 + Calcium lookup, one value per entry
Target: T1, recombinant, soluble human ASGR-1 (human, UniProt P07306 62-291)
T1 construct: biotinylated in the binning assay; also called soluble huASGR-1; Soluble ASGR-1 (Amgen)
T1 sequence: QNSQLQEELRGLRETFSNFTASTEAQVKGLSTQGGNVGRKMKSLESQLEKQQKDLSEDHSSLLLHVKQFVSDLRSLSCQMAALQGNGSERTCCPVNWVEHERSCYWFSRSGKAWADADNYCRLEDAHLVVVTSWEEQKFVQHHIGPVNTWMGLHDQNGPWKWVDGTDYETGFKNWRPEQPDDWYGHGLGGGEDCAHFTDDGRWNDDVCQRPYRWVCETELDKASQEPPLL
Experiment: Octet BLI dissociation, pH 5.6 minus calcium
Report only the number, with the unit % understood.

// worked examples, % Change Compared to pH 7.4 + Calcium included
55B1 (antibody, V domains shown, hybridoma mAb) VH: QVQLVQSGAEVKKPGASVKVSCKASGYTFTGYYFHWVRQAPGQGLEWMGWIHPNNNATNYAQKFQGRVTMTRDTSISTAYMELSRLRSDDTAVYYCAKDGRSSFDYWGQGTLVTVSS VL: DIQMTQSPSSVSASVGDRVTITCRASQVISRWLAWYQQKPGKAPNLLIYAASSLQSGVPSRFSGSGSGTDFTLTISSLQPEDFATYYCQQANSFPFTFGPGTKVDLK
4
197B6 (antibody, V domains shown, hybridoma mAb) VH: QVQLVESGGGVVQPGRSLRLSCAASGFTFSSYGMHWVRQAPGKGLEWVAVIWYDGSNKNYADSVKGRFTISRDNSKNMLYLQMNSLRAEDTAMYYCARDQGVGYDGLDVWGQGTSVTVSS VL: DIQMTQSPSSLSASVGDRVTITCRASQGIGKYLAWFQQKPGKAPKSLIYGASSLQSGVPSKFSGSGSGTDFTLTISSLQPENFATYYCQQYSTYPLTFGGGTKVEIK
-7

So, 53F2 (antibody, V domains shown, hybridoma mAb) VH: QVQLVQSGAEVKKPGASVKVSCKASGYTFTGYYLHWVRQAPGQGLEWMGWINPNRNGTNYAQNFQGRVTMTRDTSISTAYMELSRLKSDDTAVYYCARDGTSSFDYWGQGTLVTVSS VL: DIQMTQSPSSVSASVGDRVTITCRASQGISKWLAWYQQKPGKAPNLLLYAASSLQSGVPSKFSGSGSGTDFTLTISSLQPEDFATYYCQQANSFPFTFGPGTKVDVK ? Its % Change Compared to pH 7.4 + Calcium was 13
